testedOn: chimeric human H3 receptor (Homo sapiens, UniProt Q9Y5N1, E19D)
Construct: made in house; host or cells: Sf9 insect cells (baculovirus infection); P2 membrane preparation
Sequence (Q9Y5N1 with tags, fused parts or gaps E19D): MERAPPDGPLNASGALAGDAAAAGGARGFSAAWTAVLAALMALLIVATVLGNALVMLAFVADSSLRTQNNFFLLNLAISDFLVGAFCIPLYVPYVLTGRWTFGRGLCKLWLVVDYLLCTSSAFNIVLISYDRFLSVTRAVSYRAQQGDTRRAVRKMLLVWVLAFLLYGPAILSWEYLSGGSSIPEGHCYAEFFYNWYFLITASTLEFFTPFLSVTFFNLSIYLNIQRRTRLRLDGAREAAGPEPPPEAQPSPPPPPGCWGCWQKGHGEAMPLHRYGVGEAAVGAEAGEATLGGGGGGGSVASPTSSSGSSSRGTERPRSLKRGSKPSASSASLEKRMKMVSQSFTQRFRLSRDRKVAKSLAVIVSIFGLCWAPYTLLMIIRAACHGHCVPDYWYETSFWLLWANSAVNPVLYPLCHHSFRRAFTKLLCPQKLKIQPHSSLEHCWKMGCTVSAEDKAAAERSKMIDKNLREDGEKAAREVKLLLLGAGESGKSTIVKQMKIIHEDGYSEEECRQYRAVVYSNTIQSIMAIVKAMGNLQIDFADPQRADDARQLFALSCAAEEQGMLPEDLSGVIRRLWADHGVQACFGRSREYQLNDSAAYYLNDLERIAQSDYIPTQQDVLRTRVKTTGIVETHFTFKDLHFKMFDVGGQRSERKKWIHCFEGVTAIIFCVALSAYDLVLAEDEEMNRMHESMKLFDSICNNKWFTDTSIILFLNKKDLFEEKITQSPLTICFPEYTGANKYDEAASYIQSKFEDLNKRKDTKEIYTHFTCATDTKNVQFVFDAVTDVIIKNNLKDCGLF
assayRemarks: Chimeric human H3 receptor GTP binding assay (agonist-stimulated GTP-gamma35S binding, Example 7)
Type: biochemical
conditionParameters: assay of Example 7; "*" in Ki of Table II; read-out: Ki
property: Ki

> print(dat)
                                   compound  resultvalue
1  CC(C)(C)CC(=O)NC1CCN(CC(=O)N2CCN(C3CCC3)CC2)CC1    < 1000 nM
2  O=C(NC1CCN(CC(=O)N2CCN(C3CCC3)CC2)C1)C1CC2CCC1C2 (stereo not drawn)    < 1000 nM
3  CCCc1ccc(C(=O)NC2CCN(CC(=O)N3CCN(C4CCC4)CC3)CC2)cc1    < 1000 nM

----------
testedOn: chimeric human H3 receptor (Homo sapiens, UniProt Q9Y5N1, E19D)
Construct: made in house; host or cells: Sf9 insect cells (baculovirus infection); P2 membrane preparation
assayRemarks: Chimeric human H3 receptor GTP binding assay (agonist-stimulated GTP-gamma35S binding, Example 7)
Type: biochemical
conditionParameters: Table II; assay of Example 7; "*" in Ki; read-out: Ki
Item-by-item account of Ki
property: Ki

> print(dat)
                                   compound                                  testedon  resultvalue
1  O=C(CN1CCN(c2cnc(Br)cn2)CC1)N1CCN(C2CCC2)CC1 [Compound 983]  chimeric human H3 receptor (Homo sapiens, UniProt Q9Y5N1, E19D)    < 1000 nM
2  N#Cc1ccc(-c2ccc(N3CCN(CC(=O)N4CCN(C5CCC5)CC4)CC3)nn2)cc1 [Compound 1100]  chimeric human H3 receptor (Homo sapiens, UniProt Q9Y5N1, E19D)    < 1000 nM
3  CCN(CC)C(=O)c1ccc(N2CCN(CC(=O)N3CCN(C4CCC4)CC3)CC2)cc1 [Compound 1125]  chimeric human H3 receptor (Homo sapiens, UniProt Q9Y5N1, E19D)    < 1000 nM
4  O=C(CN1CCN(c2ccc(-c3cccc(F)c3F)nn2)CC1)N1CCN(C2CCC2)CC1 [Compound 1053]  chimeric human H3 receptor (Homo sapiens, UniProt Q9Y5N1, E19D)    < 1000 nM
5  Cc1cccc(-c2ccc(N3CCN(CC(=O)N4CCN(C5CCC5)CC4)CC3)nn2)c1 [Compound 1011]  chimeric human H3 receptor (Homo sapiens, UniProt Q9Y5N1, E19D)    < 1000 nM
6  COc1ccc(C(C)C)cc1-c1cnc(N2CCN(CC(=O)N3CCN(C4CCC4)CC3)CC2)cn1 [Compound 952]  chimeric human H3 receptor (Homo sapiens, UniProt Q9Y5N1, E19D)    < 1000 nM
7  COc1ccc(C)cc1-c1ccc(N2CCN(CC(=O)N3CCN(C4CCC4)CC3)CC2)nn1 [Compound 1046]  chimeric human H3 receptor (Homo sapiens, UniProt Q9Y5N1, E19D)    < 1000 nM
8  COc1cccc(OC)c1-c1ccc(N2CCN(CC(=O)N3CCN(C4CCC4)CC3)CC2)nn1 [Compound 1057]  chimeric human H3 receptor (Homo sapiens, UniProt Q9Y5N1, E19D)    < 1000 nM

----------
Item-by-item account of Ki
testedOn: chimeric human H3 receptor (Homo sapiens, UniProt Q9Y5N1, E19D)
Construct: made in house; host or cells: Sf9 insect cells (baculovirus infection); P2 membrane preparation
assayRemarks: Chimeric human H3 receptor GTP binding assay (agonist-stimulated GTP-gamma35S binding, Example 7)
Format: biochemical
conditionParameters: Table II; assay of Example 7; "*" in Ki; read-out: Ki
Experimental: This Example illustrates a representative assay for evaluating agonist-stimulated GTP-gamma^35S binding (“GTP binding”) activity. […] A compound analyzed in this assay is referred to herein as a “test compound.” […] After a 60-min incubation at room temperature, reactions are terminated by vacuum filtration over WHATMAN GF/C filters (pre-soaked in wash buffer, 0.1% BSA) followed by washing with ice-cold wash buffer (50 mM Tris pH 7.4, 120 mM NaCl). […] Data is expressed as percent above basal (baseline). […]
property: Ki

> print(dat)
                                 chemsmiles  resultvalue
1  Cc1ccc(-c2ccc(N3CCN(CC(=O)N4CCN(C5CCC5)CC4)CC3)nn2)c(F)c1    < 1000 nM
2  COc1ccc(-c2ccc(N3CCN(CC(=O)N4CCN(C5CCC5)CC4)CC3)nn2)c(OC)c1    < 1000 nM
3  CCCOc1ccc(-c2ccc(N3CCN(CC(=O)N4CCN(C5CCC5)CC4)CC3)nn2)cc1    < 1000 nM

----------
testedOn: chimeric human H3 receptor (Homo sapiens, UniProt Q9Y5N1, E19D)
Construct: made in house; host or cells: Sf9 insect cells (baculovirus infection); P2 membrane preparation
assayRemarks: Chimeric human H3 receptor GTP binding assay (agonist-stimulated GTP-gamma35S binding, Example 7)
Type: biochemical
conditionParameters: Table II; assay of Example 7; "*" in Ki; read-out: Ki
pKi: −log10 of the molar value.
Item-by-item account of pKi
property: pKi

> print(dat)
                                    compound  resultvalue
 1  Cc1cc(-c2ccc(N3CCN(CC(=O)N4CCN(C5CCC5)CC4)CC3)nn2)ccc1F [Compound 1010]       > 6.00
 2  CN(C)c1cccc(-c2ccc(N3CCN(CC(=O)N4CCN(C5CCC5)CC4)CC3)nn2)c1 [Compound 996]       > 6.00
 3  O=C(CN1CCN(c2ccc(-c3ccncc3)nn2)CC1)N1CCN(C2CCC2)CC1 [Compound 1000]       > 6.00
 4  O=C(CN1CCN(c2cnc(-c3cc(Cl)ccc3Cl)cn2)CC1)N1CCN(C2CCC2)CC1 [Compound 973]       > 6.00
 5  O=C(NC1CCCCCC1)c1cccc(N2CCN(CC(=O)N3CCN(C4CCC4)CC3)CC2)c1 [Compound 1083]       > 6.00
 6  O=C(CN1CCN(c2ccc(C(=O)N3CCSCC3)cn2)CC1)N1CCN(C2CCC2)CC1 [Compound 1101]       > 6.00
 7  CCC(C)N1CCN(C(=O)CN2CCN(c3ccc(OC)cc3)C(C)C2)CC1 (centres unmarked) [Compound 1113]       > 6.00
 8  CN(C)c1cccc(-c2cnc(N3CCN(CC(=O)N4CCN(C5CCC5)CC4)CC3)cn2)c1 [Compound 993]       > 6.00
 9  CNC(=O)c1ccc(N2CCN(CC(=O)N3CCN(C4CCC4)CC3)CC2)cc1 [Compound 1122]       > 6.00
10  CCN(C(=O)c1ccc(N2CCN(CC(=O)N3CCN(C4CCC4)CC3)CC2)cc1)C1CCCCC1 [Compound 1129]       > 6.00
11  COc1ccc(-c2cnc(N3CCN(CC(=O)N4CCN(C5CCC5)CC4)CC3)cn2)cc1 [Compound 944]       > 6.00
12  CC(C)CNC(=O)c1cccc(N2CCN(CC(=O)N3CCN(C4CCC4)CC3)CC2)c1 [Compound 1074]       > 6.00
13  O=C(CN1CCN(c2ccc(-c3ccc(Cl)c(F)c3)nn2)CC1)N1CCN(C2CCC2)CC1 [Compound 990]       > 6.00
14  O=C(CN1CCN(c2cnc(-c3ccc(F)cc3F)cn2)CC1)N1CCN(C2CCC2)CC1 [Compound 961]       > 6.00
15  CN(C(=O)c1ccc(N2CCN(CC(=O)N3CCN(C4CCC4)CC3)CC2)cc1)C1CCCCC1 [Compound 1128]       > 6.00
16  O=C(CN1CCN(c2ccc(-c3ccc(C(F)(F)F)cc3)nn2)CC1)N1CCN(C2CCC2)CC1 [Compound 1062]       > 6.00
17  COc1ccc(-c2cnc(N3CCN(CC(=O)N4CCN(C5CCC5)CC4)CC3)cn2)c(OC)c1 [Compound 954]       > 6.00
18  N#Cc1ccc(-c2cccc(N3CCN(CC(=O)N4CCN(C5CCC5)CC4)CC3)c2)cc1 [Compound 1065]       > 6.00
19  CCCCCNC(=O)c1ccc(N2CCN(CC(=O)N3CCN(C4CCC4)CC3)CC2)cc1 [Compound 1135]       > 6.00
20  COc1ccc(-c2cnc(N3CCN(CC(=O)N4CCN(C5CCC5)CC4)CC3)cn2)cc1C [Compound 948]       > 6.00
21  O=C(CN1CCN(c2ccc(-c3ccc(F)c(Cl)c3)nn2)CC1)N1CCN(C2CCC2)CC1 [Compound 987]       > 6.00
22  CCN(C(=O)c1cccc(N2CCN(CC(=O)N3CCN(C4CCC4)CC3)CC2)c1)C1CCCCC1 [Compound 1069]       > 6.00
23  O=C(NCC1CC1)c1cccc(N2CCN(CC(=O)N3CCN(C4CCC4)CC3)CC2)c1 [Compound 1073]       > 6.00
24  O=C(CN1CCN(c2cnc(-c3cc(Cl)cc(Cl)c3)cn2)CC1)N1CCN(C2CCC2)CC1 [Compound 963]       > 6.00
25  O=C(CN1CCN(c2ccc(-c3cc(C(F)(F)F)cc(C(F)(F)F)c3)nn2)CC1)N1CCN(C2CCC2)CC1 [Compound 998]       > 6.00
26  N#Cc1ccc(-c2ccc(N3CCN(CC(=O)N4CCN(C5CCC5)CC4)CC3)cc2)cc1 [Compound 1119]       > 6.00
27  COc1ccc(-c2ccc(-c3cnc(N4CCN(CC(=O)N5CCN(C6CCC6)CC5)CC4)cn3)cc2)cc1 [Compound 939]       > 6.00
28  Cc1cccc(N2CCN(CC(=O)N3CCN(C4CCC4)CC3)CC2C)c1 (centres unmarked) [Compound 1104]       > 6.00
29  O=C(CN1CCN(c2ccc(-c3cncnc3)nn2)CC1)N1CCN(C2CCC2)CC1 [Compound 1001]       > 6.00
30  Cc1ccc(-c2ccc(N3CCN(CC(=O)N4CCN(C5CCC5)CC4)CC3)nn2)cc1F [Compound 1009]       > 6.00
31  COc1ccc(-c2ccc(N3CCN(CC(=O)N4CCN(C5CCC5)CC4)CC3)nn2)cc1F [Compound 1027]       > 6.00
32  CN(C)C(=O)c1ccc(N2CCN(CC(=O)N3CCN(C4CCC4)CC3)CC2)cc1 [Compound 1123]       > 6.00
